Tested on: Mycobacterium avium
Experiment: Antimycobacterial activity against INH/RIF/OFX resistant Mycobacterium avium 330/88 after 14 days
Type: functional
Conditions: 330/88, 336 h
Recorded MIC for the following compounds
measured metric: MIC (µM)

>>> readout_value("CCCCCCNc1nnc(-c2ccncc2)o1")
500
>>> readout_value("CCCCCCCCCCCCCCCCCCNC(=O)NNC(=O)c1ccncc1")
250
>>> readout_value("CCCCCCCCCCCCNc1nnc(-c2ccncc2)o1")
8
>>> readout_value("CCCCCCCCCCCCNC(=O)NNC(=O)c1ccncc1")
32
>>> readout_value("CCCCCCCCCCCCCCCNC(=O)NNC(=O)c1ccncc1")
125
